test: Dyad photophysical properties in toluene, excited at 405 nm; type: physicochemical; conditions: emission peak, room temperature, excited at 405 nm
Quick reference for FWHM among some compounds
assayReadout: FWHM (nm)

compound="COC(=O)c1ccc(-c2c3nc(cc4[nH]c(cc5nc(cc6[nH]c2cc6C#Cc2ccc(-c6c7nc(cc8ccc(cc9nc(cc%10ccc6[nH]%10)C=C9)[nH]8)C=C7)cc2)CC5(C)C)cc4C#Cc2ccc(-c4c5nc(cc6ccc(cc7nc(cc8ccc4[nH]8)C=C7)[nH]6)C=C5)cc2)C=C3)cc1 [Dyad P1-C6]" reportedresult=17
compound=COC(=O)c1ccc(-c2c(C(=O)OC)c3cc4nc(cc5[nH]c(c(OC)c6nc(cc2[nH]3)C(C)(C)C6)c(C(=O)OC)c5C#Cc2ccc(C3=C5C=CC(=N5)C=c5ccc6[n]5[Zn][n]5c(ccc53)C=C3C=CC(=N3)C=6)cc2)C(C)(C)C4)cc1 reportedresult=29
compound="COC(=O)c1c(C#Cc2ccc(-c3c4nc(cc5ccc(cc6nc(cc7ccc3[nH]7)C=C6)[nH]5)C=C4)cc2)c2cc3nc(c(OC)c4[nH]c(cc5nc(cc1[nH]2)CC5(C)C)c(C#Cc1ccc(-c2c5nc(cc6ccc(cc7nc(cc8ccc2[nH]8)C=C7)[nH]6)C=C5)cc1)c4C(=O)OC)CC3(C)C [Dyad P1-BC2]" reportedresult=31
compound=COC(=O)c1ccc(-c2c3nc(cc4ccc(cc5nc(cc6[nH]c2cc6C#Cc2ccc(-c6c7nc(cc8ccc([nH]8)c(-c8c(C)cc(C)cc8C)c8nc(cc9ccc6[nH]9)C=C8)C=C7)cc2)CC5(C)C)[nH]4)C=C3)cc1 reportedresult=15

====

test: Dyad photophysical properties in toluene, excited at 405 nm; format: physicochemical; set-up: unit not given here; details: room temperature
assayReadout: ext coeff (abs max B)

compound=COC(=O)c1ccc(-c2c3nc(cc4[nH]c(cc5nc(cc6[nH]c2cc6-c2ccc(CNC(=O)c6ccc(-c7c8nc(cc9ccc([nH]9)c(-c9c(C)cc(C)cc9C)c9nc(cc%10ccc7[nH]%10)C=C9)C=C8)cc6)cc2)CC5(C)C)cc4-c2ccccc2)C=C3)cc1 reportedresult=440,633
compound=COC(=O)c1ccc(C2=c3ccc4[n]3[Zn][n]3c(ccc3C(c3ccc(C#Cc5ccc(C6=c7ccc8[n]7[Zn][n]7c(ccc7C=C7N=C(C=8)CC7(C)C)C=C7C=CC6=N7)cc5)cc3)=C3C=CC(=N3)C=4)C=C3C=CC2=N3)cc1 reportedresult=260,700
compound="COC(=O)c1c(C#Cc2ccc(-c3c4nc(cc5ccc(cc6nc(cc7ccc3[nH]7)C=C6)[nH]5)C=C4)cc2)c2cc3nc(c(OC)c4[nH]c(cc5nc(cc1[nH]2)CC5(C)C)c(C#Cc1ccc(-c2c5nc(cc6ccc(cc7nc(cc8ccc2[nH]8)C=C7)[nH]6)C=C5)cc1)c4C(=O)OC)CC3(C)C [Dyad P1-BC2]" reportedresult=325,400
compound="COC(=O)c1ccc(-c2c3nc(cc4[nH]c(cc5nc(cc6[nH]c2cc6-c2ccc(CNC(=O)c6ccc(C7=C8C=CC(=N8)C=c8ccc9[n]8[Zn][n]8c(ccc87)C=C7C=CC(=N7)C=9)cc6)cc2)CC5(C)C)cc4-c2ccccc2)C=C3)cc1 [P2-C1, methyl ester]" reportedresult=374,100
compound=COC(=O)c1ccc(-c2c3nc(cc4ccc(cc5nc(cc6[nH]c2cc6C#Cc2ccc(C6=C7C=CC(=N7)C=c7ccc8[n]7[Zn][n]7c(ccc76)C=C6C=CC(=N6)C=8)cc2)CC5(C)C)[nH]4)C=C3)cc1 reportedresult=263,400
compound=COc1c2nc(cc3ccc([nH]3)c(-c3ccc(-c4c5nc(cc6ccc(cc7nc(cc8ccc4[nH]8)C=C7)[nH]6)C=C5)cc3)c3nc(cc4ccc1[nH]4)C(C)(C)C3)C(C)(C)C2 reportedresult=124,800
compound=COC(=O)c1ccc(-c2c3nc(cc4ccc(cc5nc(cc6[nH]c2cc6C#Cc2ccc(CNC(=O)c6ccc(-c7c8nc(cc9ccc([nH]9)c(-c9c(C)cc(C)cc9C)c9nc(cc%10ccc7[nH]%10)C=C9)C=C8)cc6)cc2)CC5(C)C)[nH]4)C=C3)cc1 reportedresult=214,700
compound=COC(=O)c1ccc(-c2c(C(=O)OC)c3cc4nc(cc5[nH]c(c(OC)c6nc(cc2[nH]3)C(C)(C)C6)c(C(=O)OC)c5C#Cc2ccc(C3=C5C=CC(=N5)C=c5ccc6[n]5[Zn][n]5c(ccc53)C=C3C=CC(=N3)C=6)cc2)C(C)(C)C4)cc1 reportedresult=255,600
